koff by entry:
Molecular target: T1, TRBC1 (T cell receptor beta-chain constant domain 1), interaction partner protein injected in SPR (human, UniProt P01850 1-129, limits assumed)
T1 construct: also called TCR beta constant region 1
T1 sequence (P01850 1-129 limits assumed): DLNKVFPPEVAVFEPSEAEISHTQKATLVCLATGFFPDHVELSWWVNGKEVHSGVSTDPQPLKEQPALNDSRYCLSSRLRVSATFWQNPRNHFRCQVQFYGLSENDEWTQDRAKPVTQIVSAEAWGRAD
Assay: SPR (Biacore T200), antibody captured on anti-human IgG chip, TRBC1 injected, 25 C, 1:1 Langmuir fit
Write the answer as a number in s⁻¹, unit excluded.

Field: example entries. Status: answers known.
Mut8 (antibody, V domains shown, Variant of hJOVI-1; captured by anti-human IgG in SPR; also called VH G31S) VH: QVQLVQSGAEVKKPGASVKVSCKASGYTFTSYVMHWVRQAPGQGLEWMGFINPYNDDIQSNERFRGRVTMTRDTSISTAYMELSRLRSDDTAVYYCARGAGYNFDGAYRFFDFWGQGTMVTVSS VL: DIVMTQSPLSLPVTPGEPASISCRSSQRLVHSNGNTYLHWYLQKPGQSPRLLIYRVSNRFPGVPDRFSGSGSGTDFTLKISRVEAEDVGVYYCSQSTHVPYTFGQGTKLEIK : 0.000756
Mut13 (antibody, V domains shown, Variant of hJOVI-1; captured by anti-human IgG in SPR; also called VH T28K, Y32F, A100N; VL N35K) VH: QVQLVQSGAEVKKPGASVKVSCKASGYKFTGFVMHWVRQAPGQGLEWMGFINPYNDDIQSNERFRGRVTMTRDTSISTAYMELSRLRSDDTAVYYCARGNGYNFDGAYRFFDFWGQGTMVTVSS VL: DIVMTQSPLSLPVTPGEPASISCRSSQRLVHSNGKTYLHWYLQKPGQSPRLLIYRVSNRFPGVPDRFSGSGSGTDFTLKISRVEAEDVGVYYCSQSTHVPYTFGQGTKLEIK : 0.108
Mut11 (antibody, V domains shown, Variant of hJOVI-1; IgG format; also called VH G106A; anti-TRBC1 antibody Mut11) VH: QVQLVQSGAEVKKPGASVKVSCKASGYTFTGYVMHWVRQAPGQGLEWMGFINPYNDDIQSNERFRGRVTMTRDTSISTAYMELSRLRSDDTAVYYCARGAGYNFDAAYRFFDFWGQGTMVTVSS VL: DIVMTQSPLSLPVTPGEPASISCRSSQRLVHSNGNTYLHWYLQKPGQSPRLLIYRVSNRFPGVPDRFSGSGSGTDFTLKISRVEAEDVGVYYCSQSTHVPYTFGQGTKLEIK : 0.0177
Mut14 (antibody, V domains shown, Variant of hJOVI-1; IgG format; also called VH T28K, Y32F, A100N, A107S) VH: QVQLVQSGAEVKKPGASVKVSCKASGYKFTGFVMHWVRQAPGQGLEWMGFINPYNDDIQSNERFRGRVTMTRDTSISTAYMELSRLRSDDTAVYYCARGNGYNFDGSYRFFDFWGQGTMVTVSS VL: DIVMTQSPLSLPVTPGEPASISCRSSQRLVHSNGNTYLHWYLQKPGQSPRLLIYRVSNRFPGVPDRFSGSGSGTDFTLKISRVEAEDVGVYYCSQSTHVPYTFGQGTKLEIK : 0.323
hJOVI-1 (humanised JOVI-1 antibody, reference antibody) (antibody, V domains shown, Tested in IgG format and captured by anti-human IgG in SPR; also called aTRBC1; anti-TRBC1 antibody hJOVI-1) VH: QVQLVQSGAEVKKPGASVKVSCKASGYTFTGYVMHWVRQAPGQGLEWMGFINPYNDDIQSNERFRGRVTMTRDTSISTAYMELSRLRSDDTAVYYCARGAGYNFDGAYRFFDFWGQGTMVTVSS VL: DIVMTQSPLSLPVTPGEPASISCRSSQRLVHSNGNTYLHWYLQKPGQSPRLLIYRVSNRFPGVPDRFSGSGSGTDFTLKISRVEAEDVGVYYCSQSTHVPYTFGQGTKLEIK : 0.000618

Now turn to the next binder.
Look at this binder and give its reported koff. Mut10 (antibody, V domains shown, Variant of hJOVI-1; captured by anti-human IgG in SPR; also called VH Y102M) VH: QVQLVQSGAEVKKPGASVKVSCKASGYTFTGYVMHWVRQAPGQGLEWMGFINPYNDDIQSNERFRGRVTMTRDTSISTAYMELSRLRSDDTAVYYCARGAGMNFDGAYRFFDFWGQGTMVTVSS VL: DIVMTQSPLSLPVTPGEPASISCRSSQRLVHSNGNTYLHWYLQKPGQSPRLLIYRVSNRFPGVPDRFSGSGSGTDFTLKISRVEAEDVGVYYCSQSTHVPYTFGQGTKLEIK 0.00951
